Recorded measurements of aPTT percentage reversal, NOV1401/anti NOV1401 ratio 1/10 (n/n), one per entry
# measured.on: NOV1401
# Sequence (VH, as listed by the source, chain 1 of 2): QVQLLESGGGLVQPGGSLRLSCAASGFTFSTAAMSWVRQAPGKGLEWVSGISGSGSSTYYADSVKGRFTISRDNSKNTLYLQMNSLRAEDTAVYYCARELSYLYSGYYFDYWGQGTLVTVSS
# Sequence (VL, as listed by the source, chain 2 of 2): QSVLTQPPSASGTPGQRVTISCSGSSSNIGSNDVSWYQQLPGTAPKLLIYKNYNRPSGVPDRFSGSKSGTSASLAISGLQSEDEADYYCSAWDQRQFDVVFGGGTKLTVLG
# test.details: cell-based or functional assay; note: test concentration or dose not given here
Respond numerically; units are % and should not be typed.

The cases that follow already have their aPTT percentage reversal, NOV1401/anti NOV1401 ratio 1/10 (n/n) on record.
IDT4 (Fab, V domains shown, Fab; also called anti-NOV1401 Fab IDT4) VH: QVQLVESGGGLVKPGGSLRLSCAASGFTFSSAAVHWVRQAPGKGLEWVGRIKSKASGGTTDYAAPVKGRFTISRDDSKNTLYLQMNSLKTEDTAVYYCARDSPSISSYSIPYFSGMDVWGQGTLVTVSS VL: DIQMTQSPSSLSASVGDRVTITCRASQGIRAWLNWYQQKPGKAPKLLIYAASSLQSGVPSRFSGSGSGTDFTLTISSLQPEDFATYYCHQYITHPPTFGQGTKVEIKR ... 39
IDT5 (Fab, V domains shown, Fab; also called anti-NOV1401 Fab IDT5) VH: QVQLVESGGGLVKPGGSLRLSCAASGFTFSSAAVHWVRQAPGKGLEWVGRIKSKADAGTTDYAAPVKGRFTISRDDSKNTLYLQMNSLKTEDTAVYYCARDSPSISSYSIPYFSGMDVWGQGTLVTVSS VL: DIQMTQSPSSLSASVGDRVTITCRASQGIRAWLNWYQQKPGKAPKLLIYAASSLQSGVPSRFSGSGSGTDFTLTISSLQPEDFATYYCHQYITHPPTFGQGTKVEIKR ... 56
IDT3 (Fab, V domains shown, Fab; also called anti-NOV1401 Fab IDT3) VH: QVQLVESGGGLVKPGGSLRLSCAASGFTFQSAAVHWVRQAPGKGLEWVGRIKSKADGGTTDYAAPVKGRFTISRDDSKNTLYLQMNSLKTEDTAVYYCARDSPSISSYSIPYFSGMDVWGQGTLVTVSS VL: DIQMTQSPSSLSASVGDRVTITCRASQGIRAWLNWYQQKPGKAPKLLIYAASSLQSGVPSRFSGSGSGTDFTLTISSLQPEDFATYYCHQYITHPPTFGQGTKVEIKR ... 58

Input: Please indicate aPTT percentage reversal, NOV1401/anti NOV1401 ratio 1/10 (n/n) recorded for IDT7 (Fab, V domains shown, Fab; also called anti-NOV1401 Fab IDT7) VH: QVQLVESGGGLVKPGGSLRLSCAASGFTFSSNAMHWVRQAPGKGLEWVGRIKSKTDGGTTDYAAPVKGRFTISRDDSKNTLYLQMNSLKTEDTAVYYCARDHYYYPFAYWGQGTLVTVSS VL: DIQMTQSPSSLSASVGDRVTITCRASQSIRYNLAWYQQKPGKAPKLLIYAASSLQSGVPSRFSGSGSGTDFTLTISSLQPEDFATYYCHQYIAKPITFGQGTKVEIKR
Output: 54
